- Tested on: KB
- assayProtocol: Cytotoxicity against human KB cells by methylene blue staining method
- Assay type: functional
- testSettings: read-out: ED50 (the source's name)
recordedEndpoint: EC50 (µg/mL)
Please respond with the number in µg/mL and leave the unit unwritten.

QUERY: Entry "C=C1C(=O)O[C@H]2/C=C(/COC(C)=O)[C@@H](O)C[C@H]3O[C@@]3(C)C[C@@H](OC(=O)/C(C)=C/C)[C@@H]12" : reported EC50 = ?
RESULT: 4.3

QUERY: Can you share its EC50? I mean this compound: "C=C1C(=O)O[C@H]2/C=C(/C)[C@H](O)C[C@H]3O[C@@]3(C)C[C@@H](OC(=O)/C(C)=C/C)[C@@H]12"
RESULT: 3.2

QUERY: Look up EC50 for this compound: "C=C1C(=O)O[C@H]2[C@H]1[C@H](OC(=O)/C(C)=C/C)CC(=C)[C@H](O)[C@@H]1O[C@@H]1[C@]1(C)O[C@H]21"
RESULT: 5.5

QUERY: Consider the compound "C=C1C(=O)O[C@H]2[C@H]1[C@H](OC(=O)/C(C)=C/C)C[C@H](C)[C@H](O)CC(=O)[C@]1(C)O[C@H]21" and give its measured EC50.
RESULT: 8.1

###

Kindly state EC50 for each of the entries shown.
- Tested on: KB
- assayProtocol: Cytotoxicity against human KB cells by methylene blue staining method
- Assay type: functional
- testSettings: read-out: ED50 (the source's name)
Value expressed in µg/mL; do not type the unit.

QUERY: // EC50 lookup, key: "C=C1C(=O)O[C@H]2/C=C(/C)[C@@H](O)C[C@H]3O[C@@]3(C)C[C@@H](OC(=O)/C(C)=C/C)[C@@H]12"
RESULT: 1.8

QUERY: Look at this compound and give its reported EC50. "COc1cccc2c1C(=O)c1c(O)c3c(c(O)c1C2=O)C[C@@](O)(C(=O)CO)C[C@@H]3O[C@H]1C[C@H](N)[C@H](O)[C@H](C)O1"
RESULT: 0.15

QUERY: EC50 lookup needed for C=C1C(=O)O[C@@H]2/C=C(\C)C(=O)/C=C/[C@](C)(O)C[C@@H](OC(=O)/C(C)=C/C)[C@@H]12 [EUPAHELIANGOLIDE A] , thanks.
RESULT: 3.5

QUERY: Need EC50 of "C=C1C(=O)O[C@H]2/C=C(\C)[C@]3(O)CC[C@](C)(C[C@@H](OC(=O)/C(C)=C/C)[C@@H]12)O3" , thanks.
RESULT: 4.8
